ASSAY OVERVIEW: Single dose PK in healthy subjects (Cohorts 1, 2, S1 and S2), plasma
Type: in vivo, human
TEST PARAMETERS: human, plasma, iv, 112 mg, 112 mg single IV infusion, healthy subjects; read-out: tmax Mean
ENDPOINT LABEL: Tmax (h)
Numbers only, in h.

The compound COC(=O)N1CCC[C@H](NS(C)(=O)=O)[C@@H]1CO[C@H]1CC[C@@H](c2ccccc2)CC1 showed Tmax equal to 4.25

---

ASSAY OVERVIEW: Single dose PK in healthy subjects (Cohorts 1, 2, S1 and S2), plasma
Format: in vivo, human
TEST PARAMETERS: human, plasma, iv, 240 mg, 240 mg single IV infusion, healthy subjects; read-out: Ceoi Mean
ENDPOINT LABEL: concentration at 9 h (ng/mL)
Numbers only, in ng/mL.

The reported concentration at 9 h of the molecule COC(=O)N1CCC[C@H](NS(C)(=O)=O)[C@@H]1CO[C@H]1CC[C@@H](c2ccccc2)CC1 was 497
